# experimental_target: T1, Ab-1
# T1 construct: also called anti-CD28 scFv harbored in Ab-1
# T1 sequence (heavy, as listed by the source, chain 1 of 2): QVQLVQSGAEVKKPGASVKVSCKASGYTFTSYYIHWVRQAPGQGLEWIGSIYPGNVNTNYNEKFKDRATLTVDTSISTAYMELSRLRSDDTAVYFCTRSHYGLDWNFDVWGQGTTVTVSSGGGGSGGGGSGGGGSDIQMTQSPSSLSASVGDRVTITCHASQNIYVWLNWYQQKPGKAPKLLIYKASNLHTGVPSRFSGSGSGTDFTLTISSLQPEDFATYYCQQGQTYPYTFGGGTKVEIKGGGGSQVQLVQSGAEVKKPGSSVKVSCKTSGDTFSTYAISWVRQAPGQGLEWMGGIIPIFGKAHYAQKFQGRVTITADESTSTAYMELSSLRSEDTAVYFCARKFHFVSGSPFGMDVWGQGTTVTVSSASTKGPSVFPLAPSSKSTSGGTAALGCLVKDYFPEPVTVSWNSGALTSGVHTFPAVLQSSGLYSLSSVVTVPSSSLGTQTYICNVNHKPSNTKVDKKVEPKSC
# T1 sequence (light, as listed by the source, chain 2 of 2): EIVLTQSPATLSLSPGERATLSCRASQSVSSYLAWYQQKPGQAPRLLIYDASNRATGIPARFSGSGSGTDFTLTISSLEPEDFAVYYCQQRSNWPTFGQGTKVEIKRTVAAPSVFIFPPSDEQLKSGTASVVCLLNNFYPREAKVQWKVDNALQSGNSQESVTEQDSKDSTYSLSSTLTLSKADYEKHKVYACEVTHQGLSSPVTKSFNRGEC
# procedure_details: BLI (Octet), 200 nM peptide, 100 nM Ab-1;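 further: association and dissociation phases tracked in real time, with kinetics fitted to a 1:1 interaction model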
No end group written: not given here.
quantity_kind: t1/2 (min)
Reply numerically in min, unit not repeated.

Reference set, count: 2
YDWCPRDLWVHCFA (cysteine pairing not given here; also: biotinylated, site not given here) [Peptide-18]	2.9
EDWCPRDLWVHCFA (cysteine pairing not given here; also: biotinylated, site not given here) [Peptide-7]	3

What does the data say about its t1/2? Entry: VDWCPRDLWVHCFA (cysteine pairing not given here; also: biotinylated, site not given here) [Peptide-19]
2.9

What does the data say about its t1/2? Entry: TDWCPRDLWVHCFA (cysteine pairing not given here; also: biotinylated, site not given here) [Peptide-16]
4.2

What does the data say about its t1/2? Entry: FDWCPRDLWVHCFA (cysteine pairing not given here; also: biotinylated, site not given here) [Peptide-13]
3.3

What does the data say about its t1/2? Entry: SDWCPRDLWVHCFA (cysteine pairing not given here; also: biotinylated, site not given here) [Peptide-15]
2.9

What does the data say about its t1/2? Entry: WDWCPRDLWVHCFA (cysteine pairing not given here; also: biotinylated, site not given here) [Peptide-17]
4.1

What does the data say about its t1/2? Entry: ADWCPRDLWVHCFA (cysteine pairing not given here; also: biotinylated, site not given here) [Peptide-2]
3.1

What does the data say about its t1/2? Entry: QDWCPRDLWVHCFA (cysteine pairing not given here; also: biotinylated, site not given here) [Peptide-6]
3.6

What does the data say about its t1/2? Entry: HDWCPRDLWVHCFA (cysteine pairing not given here; also: biotinylated, site not given here) [Peptide-9]
3
